Test system: C33A
Assay Explanation: Primary qHTS to identify gynecologic anti-cancer compounds using libraries of approved drugs and bioactive compounds (AID 1345084); further: on the % scale 0 is the no-effect control and ±100 the full control effect; nearly all actives have a fitted effect of over 55% in size
Condition Notes: Gynecologic cancer cell panel viability, ATPlite luminescence, 48 h; series mostly up to 57.5 µM
Records with an inconclusive call do not appear. Activity calls are given as the source filed them. The call rests on the fitted dose curve; in most records, active means well fitted cell-killing curve with a large enough effect; inconclusive means small, poorly fitted or top-dose-only effect, or effect the other way; inactive means flat fitted curve, though single readings scatter.
Measurement Name: activity change, negative = cytotoxicity

>>> result("CC(=O)O[C@@H]1[C@H](O[C@@H]2OC[C@](O)(CO)[C@H]2O)[C@@H](O[C@@H]2O[C@@H](C)[C@H](O)[C@@H](O)[C@H]2O)[C@H](OC(=O)[C@]23CCC(C)(C)C[C@H]2C2=CCC4[C@@]5(C)C[C@H](O)[C@H](O[C@@H]6O[C@H](C(=O)O)[C@@H](O)[C@H](O)[C@H]6O)[C@@](C)(C(=O)O)C5CC[C@@]4(C)[C@]2(C)CC3)O[C@@H]1C (stereo partly specified)")
"-3.02% [at 11.6 µM] (inactive)"
>>> result("CON(C)C(=O)N1N=C(c2cc(F)ccc2F)S[C@@]1(CCCN)c1ccccc1")
"inactive"
>>> result("O=C(OCc1cccc(O)c1O[C@@H]1O[C@H](CO)[C@@H](O)[C@H](O)[C@H]1O)C1(O)C(=O)C2C=CC1C1C=CC(=O)C(O)(C(=O)OCc3cccc(O)c3O[C@@H]3O[C@H](CO)[C@@H](O)[C@H](O)[C@H]3O)C21 (stereo partly specified)")
"-2.5% [at 11.6 µM] (inactive)"
>>> result("N#Cc1ccc2[nH]c(O)c(-c3ccc(CN4CCOCC4)cn3)c2c1")
"inactive"
>>> result("CC(C)(O)C1=CCC23COC(C2)C(O)(C(=O)O)CCC13 (stereo unspecified)")
"inactive"
>>> result("C[C@@H]1C[C@H](O[C@@H]2O[C@H](CO[C@@H]3OC[C@](O)(CO)[C@H]3O)[C@@H](O)[C@H](O)[C@H]2O)CC(C)(C)[C@H]1/C=C/[C@@H](C)O")
"inactive"

---

System: HACAT
Assay Explanation: qHTS assay to identify novel small-molecules to repurpose for Merkel cell carcinoma treatment (AID 1296009); further: nearly all actives have a fitted effect of over 60% in size
Condition Notes: MCC and control cell lines, CellTiter-Glo viability, 72 h; at 44.8 µM (top of the series) unless noted
Inconclusive results are not listed. The source made the active and inactive calls. The call rests on the fitted dose curve; in most records, active means well fitted inhibition curve with a large enough effect; inconclusive means small, poorly fitted or top-dose-only effect; inactive means flat fitted curve, though single readings scatter. Where a SMILES comes first, the peptide text is derived from it. Bridges are numbered along the chain shown (N, C = ends). [ ]: non-standard residue; d: D form. The star is where a group is joined. X1 = CCC(C)C(N)C1=NC(C(=O)*)CS1; dOrn = NCCC[C@@H](N)C(=O)O
Measurement Name: outcome

>>> result("O=C(O)Cc1nn(Cc2nc3cc(C(F)(F)F)ccc3s2)c(=O)c2nccnc12")
"inactive"
>>> result("CCC(CCO[C@@H]1O[C@H](CO[C@H]2OC[C@](O)(CO)[C@H]2O)[C@@H](O)[C@H](O)[C@H]1O)C(C)(C)O (some centres undefined)")
"inactive [at 17.4 µM]"
>>> result("OCCc1ccc(O[C@@H]2O[C@H](CO)[C@@H](O)[C@H](O)[C@H]2O)c(O)c1")
"inactive"
>>> result("NS(=O)(=O)NCCNc1nonc1C(=Nc1ccc(F)c(Br)c1)NO")
"inactive"
>>> result("CC1CCC2(C(=O)OC3OC(CO)C(O)C(O)C3O)CCC3(C)C(=CCC4C5(C)CC(O)C(O)C(C)(C(=O)O)C5CCC43C)C2C1(C)O (centres undefined)")
"inactive [at 17.4 µM]"
>>> result("C=C1[C@H]2[C@H](O[C@@H]3O[C@H](COC(=O)/C=C/c4cc(OC)c(O)c(OC)c4)[C@@H](O)[C@H](O)[C@H]3O)OC=C(C(=O)O)[C@H]2C[C@@H]1O")
"inactive [at 17.4 µM]"
>>> result("COc1cc([C@H]2OC[C@@H]3[C@@H](c4ccc(O[C@@H]5O[C@H](CO)[C@@H](O)[C@H](O)[C@H]5O)c(OC)c4)OC[C@]23O)ccc1O")
"inactive [at 17.4 µM]"
>>> result("CC(=O)Oc1cc2c(s1)CCN([C@H](C(=O)C1CC1)c1ccccc1F)C2")
"inactive"
>>> result("C[C@@H]1O[C@@H](O[C@H]2[C@H](OC(C#N)c3ccc(O)cc3)O[C@H](CO)[C@@H](O)[C@@H]2O)[C@H](O)[C@H](O)[C@H]1O (some centres undefined)")
"inactive [at 17.4 µM]"
>>> result("CC(C)(O)c1ccc2c(c1)C(O)CC1C(C)(C(=O)O)CCCC21C (centres undefined)")
"inactive"
>>> result("CC(=O)OCC(=O)O[C@@H]1[C@H]2[C@@H](OC(=O)c3ccccc3)[C@@H](C)C[C@]2(O)[C@H](OC(C)=O)C2(C)[C@H]3CC(C)(C)C(=O)[C@@H]3CC1(OC(C)=O)[C@@H]2OC(C)=O (some centres undefined)")
"inactive [at 17.4 µM]"
>>> result("CC1(C)CC[C@]2(C(=O)O)CC[C@]3(C)C(=CCC4[C@@]5(C)C[C@H](O)[C@H](O[C@@H]6OC[C@H](O)[C@H](O)[C@H]6O)[C@@](C)(CO)C5CC[C@]43C)[C@@H]2C1 (some centres undefined)")
"inactive [at 17.4 µM]"
>>> result("COc1cc(/C=C/C(=O)OC2CC(C)=C(C(=O)O)/C2=C/CO[C@@H]2O[C@H](CO)[C@@H](O)[C@H](O)[C@H]2O)ccc1O (some centres undefined)")
"inactive [at 17.4 µM]"
>>> result("CC(=O)O[C@@H]1[C@H](O[C@@H]2OC[C@](O)(CO)[C@H]2O)[C@@H](O[C@@H]2O[C@@H](C)[C@H](O)[C@@H](O)[C@H]2O)[C@H](OC(=O)[C@]23CCC(C)(C)C[C@H]2C2=CCC4[C@@]5(C)C[C@H](O)[C@H](O[C@@H]6O[C@H](C(=O)O)[C@@H](O)[C@H](O)[C@H]6O)[C@@](C)(C(=O)O)C5CC[C@@]4(C)[C@]2(C)CC3)O[C@@H]1C (some centres undefined)")
"inactive [at 9.27 µM]"
>>> result("CCC(C)C(N)C1=NC(C(=O)N[C@@H](CC(C)C)C(=O)N[C@H](CCC(=O)O)C(=O)N[C@H](C(=O)N[C@H]2CCCCNC(=O)[C@H](CC(N)=O)NC(=O)[C@@H](CC(=O)O)NC(=O)[C@H](Cc3cnc[nH]3)NC(=O)[C@@H](Cc3ccccc3)NC(=O)[C@H]([C@@H](C)CC)NC(=O)[C@@H](CCCN)NC2=O)[C@@H](C)CC)CS1 (some centres undefined) (X1-L[dE]IK[dOrn]I[dF]H[dD]N; lactam 4-C)")
"inactive [at 17.4 µM]"
>>> result("C=C1C[C@@]23CC[C@@H]4[C@](C)(C(=O)O)CCC[C@@]4(C)C2=CC[C@H]1C3")
"inactive"
>>> result("CC(C)CC(=O)OC[C@H]1O[C@@](COC(=O)CC(C)C)(O[C@H]2O[C@H](CO)[C@@H](O)[C@H](O)[C@H]2O)[C@@H](OC(=O)CC(C)C)[C@@H]1OC(=O)CC(C)C")
"inactive [at 17.4 µM]"
>>> result("O=C(C1CC1)N1CC[C@@H](Cc2n[nH]c(=O)n2-c2ccc(-c3ccc4occc4c3)cc2)C1")
"inactive [at 17.4 µM]"
>>> result("CC(C)(O)C1=CCC23COC(C2)C(O)(C(=O)O)CCC13 (centres undefined)")
"inactive"
>>> result("C=CCc1ccc(O[C@@H]2O[C@H](CO)[C@@H](O)[C@H](O)[C@H]2O)c(OC)c1")
"inactive"
>>> result("C/C=C(\\C)C(=O)OC[C@H]1O[C@H](O[C@H]2O[C@H](CO)[C@@H](OC(=O)/C(C)=C/C)[C@H](O)[C@H]2O[C@@H]2O[C@H](CO)[C@@H](O)[C@H](O)[C@H]2O)[C@H](O[C@@H]2O[C@H](CO)[C@@H](O)[C@H](O)[C@H]2O)[C@@H](O)[C@@H]1O")
"inactive [at 9.27 µM]"
>>> result("NCCOCCOCCNC(=O)Cc1ccc(Nc2nc(NCc3ccc(F)cc3)nc(NCC3CCCCC3)n2)cc1")
"inactive"
>>> result("FC(F)(F)c1cc(C(F)(F)F)c2ccc3nc(-c4nnco4)cn3c2n1")
"inactive"

---

Tested on: NIH3T3
Assay Explanation: qHTS assay to identify novel small-molecules to repurpose for Merkel cell carcinoma treatment (AID 1296009); further: nearly all actives have a fitted effect of over 60% in size
Condition Notes: MCC and control cell lines, CellTiter-Glo viability, 72 h; at 44.8 µM (top of the series) unless noted
Inconclusive results are not listed. Active and inactive are the calls of the source. Calls come from the whole dose curve; as a rule, active = well fitted inhibition curve with a large enough effect; inconclusive = small, poorly fitted or top-dose-only effect; inactive = flat fitted curve, though single readings scatter.
Measurement Name: outcome

>>> result("CC1=CC(=O)CC(C)(C)C1CCC(C)OC1OC(COC(=O)c2cc(O)c(O)c(O)c2)C(O)C(O)C1O (configuration not stated)")
"inactive [at 17.4 µM]"
>>> result("CC(C)C1=CC2=CCC3[C@](C)(CCC[C@@]3(C)C(=O)O)C2CC1O (some centres not stated)")
"inactive"
>>> result("CC(=O)OC1C=C(C(=O)O)C2(CO)CCC(C)C(C)(CCc3ccoc3)C2C1 (configuration not stated)")
"inactive [at 17.4 µM]"
>>> result("COC(=O)[C@@]1(O)C=CC[C@@H]2[C@@]3(C)C[C@@H](c4ccoc4)OC(=O)[C@H]3CC[C@]21C")
"inactive"
>>> result("CCC[C@@H]1C[C@@H](C(=O)N[C@@H]([C@H]2O[C@H](SC)[C@H](OP(=O)(O)O)[C@@H](O)[C@H]2O)[C@H](C)Cl)N(C)C1")
"inactive [at 17.4 µM]"
>>> result("C=CC(C)(C)C12CC3C(=O)NC(Cc4cnc[nH]4)C(=O)N3C1Nc1ccccc12 (configuration not stated)")
"inactive"

Just for reference, PubChem BioAssay (NCATS) is where these values come from.
